Experiment: Catalepsy
Type: in vivo, Sprague Dawley rats (female)
Conditions: 20 mg/kg i.v., rat, tested one and two hours later
Where a name gives a salt, the structure may show the parent alone.
Experimental readout: Catalepsy

What measured Catalepsy goes with CCN1CCCC1CNC(=O)c1cc(Cl)cc2c1OCC2 (stereo not shown) [Compound C-1, hydrochloride] ?
Yes

What does the record list as Catalepsy for CCN1CCCC1CNC(=O)c1cc(Cl)c(N)c2c1OCC2 (stereo not shown) ?
Yes

Fill blank: measured Catalepsy of the molecule CCN1CCCC1CNC(=O)c1cc(N)cc2c1OCC2 (stereo not shown) [Compound C-2, hydrochloride] is ____.
No

Given the molecule CCN1CCCC1CNC(=O)c1cc(Cl)c(N)cc1OC (stereo not shown) , what is its reported Catalepsy?
Yes

All values here come from patent US4772459A.
